# growth inhibition per entry
Experiment: NCI Yeast Anticancer Drug Screen. Data for the cln2 rad14 strain (AID 165);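 also: 0% = growth equal to vehicle treated cultures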
Conditions: S. cerevisiae cln2 rad14 strain, at 50.0 µM, hits give high values
The panel holds about 79,000 compounds, 15% with a hit somewhere; the sample as a whole holds those more often.
measurement name: growth inhibition (%)

>  <molecule>
Cc1ccc(NC(=O)/C(Cc2cc(=O)oc3cc(O)ccc23)=N\NC(C)(C)C)cc1C

>  <value unit>
%

>  <reported>
-33.9

$$$$
>  <molecule>
CSc1nc(Br)nc2ncn(C3CC(Oc4ccc(C)cc4)C(COc4ccc(C)cc4)O3)c12 (stereo not drawn)

>  <value unit>
%

>  <reported>
0.7

$$$$
>  <molecule>
CC1CC(C(=O)OC2OC(COC3OC(CO)C(OC4OC(C)C(O)C(O)C4O)C(O)C3O)C(O)C(O)C2O)C2CCC3(C)C(=CCC4(C)C3CCC3C(C)(CO)C(O)C(O)CC34C)C2C1C (stereo not drawn)

>  <value unit>
%

>  <reported>
26.8

$$$$

----------
# growth inhibition per entry
Test: NCI Yeast Anticancer Drug Screen. Data for the cln2 rad14 strain (AID 165);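 also: 0% = growth equal to vehicle treated cultures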
Conditions: S. cerevisiae cln2 rad14 strain, at 50.0 µM, hits give high values
About 79,000 compounds went through this panel and 15% of them were active in at least one assay; those are over-represented in the sample as a whole.

>  <molecule>
O=C(NC1=NC2C=CC([N+](=O)[O-])=CC2S1)C(=O)Nn1c(=S)[nH]c2ccccc2c1=O (centres undefined)

>  <growth inhibition, %>
10.8

$$$$
>  <molecule>
COc1ccc(/C=c2\[nH]c3nc(=O)c(N4CCOCC4)c(N)n3c2=O)cc1

>  <growth inhibition, %>
-11.8

$$$$
>  <molecule>
COc1cc2c(cc1-c1coc3cc(O)ccc3c1=O)OCO2

>  <growth inhibition, %>
11.2

$$$$
>  <molecule>
COc1ccc2cc1Oc1ccc(cc1)C[C@@H]1c3cc(c(OC)cc3CCN1C)Oc1c(OC)c(OC)cc3c1[C@H](C2)N(C)CC3

>  <growth inhibition, %>
5.1

$$$$
>  <molecule>
COc1ccc2cc1Oc1ccc(cc1)CC1c3cc(OC)c(cc3CCN1C)Oc1c(OC)c(OC)cc3c1C(C2)N(C)CC3 (centres undefined)

>  <growth inhibition, %>
6.9

$$$$
>  <molecule>
C=C1C(=O)O[C@@H]2C[C@@]3(C)CC(=O)C=C(C)[C@@H]3C[C@H]12

>  <growth inhibition, %>
24.7

$$$$
>  <molecule>
COc1cc(N(CCC#N)CCC#N)ccc1/C(N=Nc1ccc(Cl)cc1)=N/NC(=O)c1cc(Br)ccc1O

>  <growth inhibition, %>
7.2

$$$$
>  <molecule>
COc1ccc(CC2C(=O)NC(=O)NC2=O)cc1OCc1ccccc1

>  <growth inhibition, %>
-10

$$$$
>  <molecule>
NC(N)=Nc1ccc(CC(N)C(=O)O)cc1 (centres undefined)

>  <growth inhibition, %>
15.2

$$$$
>  <molecule>
Cc1ccc(/C=N/Nc2nncc3ccccc23)s1

>  <growth inhibition, %>
21.2

$$$$
>  <molecule>
O=C(O)c1n[nH]nc1Cl

>  <growth inhibition, %>
-4.2

$$$$
>  <molecule>
CC(C)n1c2c([n+](C)c1/C=C/c1ccccc1)C(=O)c1ccccc1C2=O

>  <growth inhibition, %>
88.9

$$$$
>  <molecule>
O=C1C=CC=C/C1=C1\N=C(c2ccccc2OCC(=O)c2ccc(Br)cc2)SS1

>  <growth inhibition, %>
8.75

$$$$
>  <molecule>
N#Cc1nc(-c2cccc(-c3nc(C#N)c(N)o3)n2)oc1N

>  <growth inhibition, %>
7.9

$$$$

Source: PubChem BioAssay (NCI)
